biological target: CaHse1; assay: SPOT peptide array binding signal intensity (averaged, normalized) (arbitrary units (background-subtracted, floor 0; scale differs between SH3 domains)); higher = stronger binding of the SH3 domain to the peptide
Assay metric: SPOT peptide array binding signal intensity
Could you respond with only the numeric value?

Here is how some binders turned out for SPOT peptide array binding signal intensity.
- Binder: "KRNRLKILLPFLEQS"
  Endpoint value: 57.2
- Binder: "IFLRISINFPLNYPN"
  Endpoint value: 1570
- Binder: "GKLKHIPRRPYEIER"
  Endpoint value: 1.5

Consider the binder "LLIRWLILMPLVGSR" and give its measured SPOT peptide array binding signal intensity.
875

Consider the binder "QHQQRQPKRPKRYSL" and give its measured SPOT peptide array binding signal intensity.
175

Consider the binder "ITHRLRISIPGITGR" and give its measured SPOT peptide array binding signal intensity.
62.5

Consider the binder "LFMKGTPEFPKSGFS" and give its measured SPOT peptide array binding signal intensity.
113

Consider the binder "RRRIAYPFYPFKKLG" and give its measured SPOT peptide array binding signal intensity.
47.8

Consider the binder "FVLRYYILIPHEQWD" and give its measured SPOT peptide array binding signal intensity.
174

Consider the binder "ANNQGPPNLPARDKS" and give its measured SPOT peptide array binding signal intensity.
38.8

Consider the binder "NMLSRPRLAKLPSIR" and give its measured SPOT peptide array binding signal intensity.
183

Consider the binder "RRSKSLPITPKSIFN" and give its measured SPOT peptide array binding signal intensity.
1
